Tested on: Math1 enhancer and minimal promoter Luciferase reporter in HEK cells
protocol_summary: Math1 Luciferase reporter assay in HEK cells
Type: cell-based, human
condition_details: Homo sapiens, HEK293; read-out: IC50
experimental_readout: pIC50
Answers are plain numbers, as −log10 of the molar value.

>>> df
                                   compound                             tested_system  test_value
0  Cc1ccc(COn2c(-c3ccccc3)nc3ccc([N+](=O)[O-])cc32)cc1 [CP-0000571]  Math1 enhancer and minimal promoter Luciferase reporter in HEK cells        6.52
1  Cc1cccc(Nc2nc(N)c(C(=O)C(C)C)s2)c1 [CP-0134381]  Math1 enhancer and minimal promoter Luciferase reporter in HEK cells        5.70

Each of the following entries comes with a recorded value; kindly state pIC50 for each.
1. Clc1ccc2oc(-c3ccccc3)nc2c1 [CP-0079983, 5-chloro-2-phenylbenzo[d]oxazole]
2. c1ccc(-c2cc3ccccc3[nH]2)nc1 [CP-0072096, 2-(pyridin-2-yl)-1H-indole]
3. Nc1nn(-c2ncnc3c2[nH]c2ccccc23)cc1-c1ccc(Cl)cc1 [CP-0000477]
4. Cn1c(CCc2ccc(N)cc2)nc2ccccc21 [CP-0066829]
5. O=C(Nc1ccc(I)cc1)c1ccco1 [CP-0072253, N-(4-iodophenyl)furan-2-carboxamide]
6. COCCNc1ncc(-c2ccc(C)cc2)cn1 [CP-0059547]
7. O=C(c1cc(-c2ccc(Br)cc2)on1)N1CCOCC1 [CP-0075627]
8. COc1ccc(-c2csc(Nc3ncccc3C)n2)cc1 [CP-0071862]

1: 5.52; 2: 5.22; 3: 5.70; 4: 6.00; 5: 5.89; 6: 6.00; 7: 5.10; 8: 6.15

---

Tested on: Math1 enhancer and minimal promoter Luciferase reporter in HEK cells
protocol_summary: Math1 Luciferase reporter assay in HEK cells
Type: cell-based, human
condition_details: Homo sapiens, HEK293; read-out: IC50
pIC50: −log10 of the molar value.
Returns 1 if the recorded pIC50 is greater than or equal to 6, and 0 otherwise.

                                 compound                             tested_system  label_class
0      COc1ccc(Br)c(-c2nc(-c3cccs3)no2)c1  Math1 enhancer and minimal promoter Luciferase reporter in HEK cells            0
1    COc1ccc(-c2nc3ccccc3n2CCc2ccccc2)cc1  Math1 enhancer and minimal promoter Luciferase reporter in HEK cells            0
2            c1ccc(SCc2nc3ccccc3[nH]2)cc1  Math1 enhancer and minimal promoter Luciferase reporter in HEK cells            0
3           O=C(NCCSc1ccccc1)c1cncc(Br)c1  Math1 enhancer and minimal promoter Luciferase reporter in HEK cells            0
4  CC(=O)Nc1cc(-c2sc3ccc(Cl)cc3c2C)n[nH]1  Math1 enhancer and minimal promoter Luciferase reporter in HEK cells            0

Answer whether pIC50 of Cn1nccc1C(=O)Nc1nc2ccccc2s1 is greater than or equal to 6.
0

Answer whether pIC50 of CCn1ccc(C(=O)Nc2cc(Cl)ccc2Cl)n1 is greater than or equal to 6.
0

---

Test system: Math1 enhancer and minimal promoter Luciferase reporter in HEK cells
protocol_summary: Math1 Luciferase reporter assay in HEK cells
Format: cell-based, human
condition_details: Homo sapiens, HEK293; read-out: IC50
experimental_readout: pIC50
One number for each entry, as −log10 of the molar value.

Here's what some known entries look like.
>>> print(df.to_string())
                                   molecule                             tested_system  experimental_readout  test_value
0            O=C(Nc1ccc(Cl)cn1)c1ccc(Br)cc1  Math1 enhancer and minimal promoter Luciferase reporter in HEK cells                 pIC50        6.70
1  CN(C)c1ccc(C2NN=C(c3ccc(Cl)cc3)N2)cc1 (stereo not drawn)  Math1 enhancer and minimal promoter Luciferase reporter in HEK cells                 pIC50        6.00
2  COc1ccc(-c2nc3ccc(Cl)cc3n2OCc2ccc(C)cc2)cc1  Math1 enhancer and minimal promoter Luciferase reporter in HEK cells                 pIC50        8.00

Each of the following entries comes with a recorded value; kindly state pIC50 for each.
1. N#Cc1c(NC(=O)c2ccccc2F)sc2c1CCCC2
2. Cc1ccc(CSc2nc3ncccc3o2)cc1
3. COc1ccccc1OCc1nc2ccccc2[nH]1
4. CNc1ccccc1C(=O)NCCc1ccccc1 [CP-0007991, 2-(methylamino)-N-phenethylbenzamide]

[5.60, 6.30, 5.70, 6.22]
